System: A549 non-small cell lung carcinoma cells
Experiment: Anti-proliferative assay, cell-titre luminescent reagent, 72 h (GVK-BIO)
Assay type: cell-based
Conditions: Homo sapiens, A549, 72 h, 30, 10, 3, 1, 0.3 and 0.1 μM, nonlinear regression (Table 5), read-out: IC50/μM Lung (NSLC) A549
MEASURE: IC50 (µM)

compound="Cc1c(C)n(CCCN2CCN(C)CC2)c2ccc(C(=O)N3CCN(CCc4ccc(O)cc4)CC3)cc12 [Compound 4122]" target_under_test="A549 non-small cell lung carcinoma cells" measure=IC50 quantity_unit=µM inequality_sign=> recorded_number=30
compound="CN(C)CCCn1ccc2cc(Oc3ccc(C(=O)Nc4ccccc4)cc3)ccc21 [Compound 4002]" target_under_test="A549 non-small cell lung carcinoma cells" measure=IC50 quantity_unit=µM inequality_sign== recorded_number=16.3
compound="Cc1c(C)n(CCCN2CCN(C)CC2)c2ccc(CN3CCN(CCc4cccc(O)c4)CC3)cc12 [Compound 4116]" target_under_test="A549 non-small cell lung carcinoma cells" measure=IC50 quantity_unit=µM inequality_sign== recorded_number=10.1
compound="Cc1c(C)n(CCCN(C)C)c2ccc(Cc3ccc(C(=O)Nc4ccc(F)cc4)cc3)cc12 [Compound 4082]" target_under_test="A549 non-small cell lung carcinoma cells" measure=IC50 quantity_unit=µM inequality_sign== recorded_number=4.9
